FYI, the data here is from patent US12428408B2.

# targetDesc: 5-HT1A receptor (Homo sapiens, UniProt P08908)
# Construct: purchased Perkin Elmer 6110501400UA
# Sequence (P08908 whole entry): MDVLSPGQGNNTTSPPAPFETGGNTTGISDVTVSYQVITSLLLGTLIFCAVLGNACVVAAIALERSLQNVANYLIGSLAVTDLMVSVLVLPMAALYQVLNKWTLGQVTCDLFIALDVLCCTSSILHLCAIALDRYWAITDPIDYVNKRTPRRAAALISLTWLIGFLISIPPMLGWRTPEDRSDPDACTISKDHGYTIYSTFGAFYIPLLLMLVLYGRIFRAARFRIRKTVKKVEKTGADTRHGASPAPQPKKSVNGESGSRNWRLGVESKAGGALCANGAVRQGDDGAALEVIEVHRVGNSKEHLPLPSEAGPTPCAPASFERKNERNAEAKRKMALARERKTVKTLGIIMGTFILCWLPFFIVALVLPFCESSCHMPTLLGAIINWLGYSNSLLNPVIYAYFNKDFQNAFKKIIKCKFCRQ
# measurementNotes: 5-HT1A receptor radioligand competition assay (SPA)
# Format: binding
# condition met = Ki below 2000 nM (exclusive); condition not met = Ki at/above 2000 nM

Example cases with answers are listed next.
# strict comparison: is reported Ki < 2000 nM? input = CC(Cc1ccc2c(c1)OCCO2)NCc1ccc2c(c1)OCCO2 (stereo not shown) [A(XIII)]
condition met

# strict comparison: is reported Ki < 2000 nM? input = CC(Cc1ccc2c(c1)OCCO2)NCc1ccc2c(c1)OCO2 (stereo not shown) [A(XII)]
condition met

# strict comparison: is reported Ki < 2000 nM? input = CC(Cc1ccc2c(c1)OCCO2)NCc1ccccc1 (stereo not shown) [A(XXIII)]
condition not met

# strict comparison: is reported Ki < 2000 nM? input = CC(Cc1ccc2c(c1)OCO2)N1CCOCC1 (stereo not shown) [A(III)]
condition not met

Next:
# strict comparison: is reported Ki < 2000 nM? input = CC(Cc1ccc2c(c1)OCO2)N1CCC1 (stereo not shown) [A(II)]
condition met

# strict comparison: is reported Ki < 2000 nM? input = CC(Cc1ccc2c(c1)OCO2)NC1CCC1 (stereo not shown) [A(I)]
condition not met

# strict comparison: is reported Ki < 2000 nM? input = COc1cc2c(cc1CNC(C)Cc1ccc3c(c1)OCCO3)OCO2 (stereo not shown) [A(X)]
condition met

# strict comparison: is reported Ki < 2000 nM? input = CC(Cc1ccc2c(c1)OCO2)NCc1cc2c(cc1Br)OCO2 (stereo not shown) [A(VI)]
condition met

# strict comparison: is reported Ki < 2000 nM? input = CC(Cc1ccc2c(c1)OCCO2)NC1CCC1 (stereo not shown) [A(XVII)]
condition not met

# strict comparison: is reported Ki < 2000 nM? input = COc1cc2c(cc1CNC(C)Cc1ccc3c(c1)OCO3)OCO2 (stereo not shown) [A(V)]
condition met

# strict comparison: is reported Ki < 2000 nM? input = CC(Cc1ccc2c(c1)OCCO2)NCc1cc2c(cc1Br)OCCO2 (stereo not shown) [A(XI)]
condition met

# strict comparison: is reported Ki < 2000 nM? input = CC(Cc1ccc2c(c1)OCO2)N(C)CCc1c[nH]c2ccccc12 (stereo not shown) [A(XXXII)]
condition met

# strict comparison: is reported Ki < 2000 nM? input = CC(Cc1ccc2c(c1)OCCO2)NCc1cc2c(cc1Br)OCO2 (stereo not shown) [A(IX)]
condition met
